The reported numbers originate from patent US4616003A.

biological target: adenosine A2 receptor (Rattus norvegicus, UniProt P30543); construct: Brains were thawed and then kept on ice while the striata were dissected out; tissue Pel-Freez (Rogers, Ark.); host or cells: rat striatum (Sprague-Dawley brains; Long-Evans gave essentially identical results); experiment: Adenosine A2 receptor binding (RBA-2), displacement of [3H]NECA
Sequence (P30543 whole entry): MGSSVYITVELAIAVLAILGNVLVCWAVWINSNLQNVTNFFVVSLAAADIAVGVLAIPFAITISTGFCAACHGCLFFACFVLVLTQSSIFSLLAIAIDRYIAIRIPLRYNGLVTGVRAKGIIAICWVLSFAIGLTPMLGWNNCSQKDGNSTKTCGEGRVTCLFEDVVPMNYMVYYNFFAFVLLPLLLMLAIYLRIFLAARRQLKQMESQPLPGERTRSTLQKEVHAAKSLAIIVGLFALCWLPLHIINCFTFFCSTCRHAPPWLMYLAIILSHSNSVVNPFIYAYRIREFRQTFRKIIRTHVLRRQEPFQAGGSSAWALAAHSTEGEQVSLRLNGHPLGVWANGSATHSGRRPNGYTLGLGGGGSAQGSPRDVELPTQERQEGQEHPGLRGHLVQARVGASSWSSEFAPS
Listing of entries alongside the reported pIC50.
Interpret pIC50 as the negative base-10 log of the concentration measured in mol/L.

| COMPOUND | pIC50 |
| --- | --- |
| OC[C@H](O)CNc1ncnc2c1ncn2[C@@H]1O[C@H](CO)[C@@H](O)[C@H]1O [Example 2, (R)-N^6-[2,3-Dihydroxypropyl]adenosine] | 4.96 |

Please find the next compound below.
**Query** Fill in: pIC50 of OC[C@@H](O)CNc1ncnc2c1ncn2[C@@H]1O[C@H](CO)[C@@H](O)[C@H]1O is ___
**Result** 4.70
